Molecular target: T1, biotinylated native human ApoC3 (human, UniProt P02656 21-99, biotinylated (site not stated))
T1 construct: also called biotinylated human ApoC3
T1 sequence (P02656 21-99): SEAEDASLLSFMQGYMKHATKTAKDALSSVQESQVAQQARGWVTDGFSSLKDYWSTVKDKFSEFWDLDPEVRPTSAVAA
Test: SPR, IgG1 over biotinylated ApoC3 on SA chip, pH 5.5
Protocol: Biotinylated native human ApoC3 was captured on a streptavidin coated SPR chip (GE Healthcare, cat. nr. BR100032) at pH 7.4, in accordance with the method provided by Biacore, by injection of 20 μl 10 μg/ml biotinylated native human ApoC3 reaching the surface density of approximately 500 RU. […] The resulting sensorgrams were analyzed using the BIAevaluation 4.1 software using Langmuir 1:1 binding model to derive binding kinetics. […]
measure: kon (M⁻¹ s⁻¹)
State just the number; it will be interpreted in M⁻¹ s⁻¹.

I am curious: what kon value has been reported for 5E5VH5_VL8 human IgG1 (antibody, V domains shown, Tested as human IgG1; the tested lot is not tied to them in words) VH: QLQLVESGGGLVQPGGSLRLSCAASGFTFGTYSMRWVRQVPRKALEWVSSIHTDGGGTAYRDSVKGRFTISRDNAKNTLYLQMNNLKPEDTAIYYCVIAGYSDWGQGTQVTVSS VL: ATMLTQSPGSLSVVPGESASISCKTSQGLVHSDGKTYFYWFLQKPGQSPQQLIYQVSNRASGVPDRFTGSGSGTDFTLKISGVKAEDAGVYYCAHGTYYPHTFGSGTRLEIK ?
211000

Try this binder next: mAb14 (antibody, IgG1, V domains shown, Produced as full length IgG1 (kappa) in ExpiCHO-S cells; CDR graft into the closest human germline frameworks; also called humanized anti-ApoC3 antibody mAb14; variant 14) VH: QLLESGGGLVQPGGSLRLSCAASGFTFGTYSMRWVRQVPGKGLEWVSSIHTEGGGTAYRDSVKGRFTISRDNSKNTLYLQMNSLRAEDTAVYYCVIAGYSDWGQGTLVTVSS VL: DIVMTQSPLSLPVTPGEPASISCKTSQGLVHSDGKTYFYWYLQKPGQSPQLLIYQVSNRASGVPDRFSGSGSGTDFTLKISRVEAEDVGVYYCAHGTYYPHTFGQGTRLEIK
370000

Another binder to check: 5E5VH12_VLWT human IgG1 (antibody, V domains shown) VH: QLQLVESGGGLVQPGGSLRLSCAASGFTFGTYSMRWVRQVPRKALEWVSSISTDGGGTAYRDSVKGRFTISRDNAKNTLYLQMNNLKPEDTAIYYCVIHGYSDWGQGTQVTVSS VL: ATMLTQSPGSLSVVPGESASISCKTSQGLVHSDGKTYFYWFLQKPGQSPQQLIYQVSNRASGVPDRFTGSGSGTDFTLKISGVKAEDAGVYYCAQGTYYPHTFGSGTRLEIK
302000
